Biological target: T1, Insulin receptor prepared according to Bass et al., 1996: soluble human insulin receptor-immunoglobulin heavy … (human, UniProt P06213 28-956)
T1 construct: extracellular domain; Eu3+-labelled in TR-FRET; also called IR; sIR-Fc; not shown: immunoglobulin heavy chain constant domains that replace the transmembrane and i
Assay: phage ELISA vs milk
Positions of bridges follow the written chain, without caps; N, C: chain ends. No end group written: not given here.
READOUT_KIND: Ratio over Background (fold)

>>> print(df.to_string())
                                      binder           readout_kind  measured
 0  RFSTDGFYQYLLALVGGGPVG [20E28-1-A11-ICFR]  Ratio over Background         1
 1  GCEVIVEEGDSADPFYHKLSELCQGS (disulfide 2-23 (inferred)) [B6Hα-2-D1-IR]  Ratio over Background       1.3
 2          GFREGSFYDWFQAQVT [E4Dα-2-D11-IR]  Ratio over Background       3.3
 3  LRRQAPVEENFYDWFVRQVSGDRVGG [H2CA-3-D7-IGFR]  Ratio over Background       0.8
 4  SSCDGAGHESFYEWFVRQVSGCRSV (not fully specified (bridges); cysteine pairing not given here) [H2CA-3-C8-IGFR]  Ratio over Background       1.2
 5         EGSGFYGYFFSLLGLQG [NNRPy-4-A9-IR]  Ratio over Background       1.4
 6  RGMKEEVLVGGSTDPFYHKLSELLQGS [B6Hα-3-F11-IR]  Ratio over Background       1.6
 7   GNGDGMFYQLLSLLVGRDMHV [20E22-3-C2-IGFR]  Ratio over Background       0.6
 8  RCQGTGFYTCIQELIGFGDPD (disulfide 2-10 (inferred)) [20E2B-4-E9-IGFR]  Ratio over Background       0.9
 9  QAVQPGFHEEFYDWFVRQVSTGVGGG [H2CA-4-H4-IGFR]  Ratio over Background         1
10  ICTGQGFYQVLCGLLRGTSAR (disulfide 2-12 (inferred)) [20E2B-2-B3-IGFR]  Ratio over Background       0.7

Taken from patent US20030236190A1.
